- Target system: tandem Tudor domain (TTD) of human 53BP1 (human, UniProt Q12888 1484-1603)
- Sequence (Q12888 1484-1603): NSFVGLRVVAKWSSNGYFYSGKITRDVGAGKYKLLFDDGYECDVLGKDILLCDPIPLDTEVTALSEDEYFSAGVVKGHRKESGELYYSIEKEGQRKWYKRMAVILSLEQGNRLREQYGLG
- Experiment: NMR titration
*1 amine or outer side, *2 acyl side, *3 side chain or, on linkers, in order; H or OH if unused. Where no end group is shown, it is not given here. [ ]: non-standard residue; d: D form. KCme2 = N-dimethylated aminoethylcysteine, CN(C)CCSC[C@H](N[*:1])C(=O)[*:2]; Me2 = dimethyl group on the Lys side-chain amine
Parameter measured: binding result

Before answering, review these 6 worked examples.
[
  {
    "Binder": "GHMRAHSSHLCSKKGQST (not fully specified (residue 11)) [p53KC370me2 peptide (recombinant, dimethyllysine analogue at 370)]",
    "Result": "binds"
  },
  {
    "Binder": "GHMRAHSSHLCSGKGQST (not fully specified (residue 11)) [p53KC370me2K372G peptide]",
    "Result": "binds"
  },
  {
    "Binder": "GHMSTSRHKCLMGKT (not fully specified (residue 10)) [p53KC382me2F385G peptide]",
    "Result": "binds"
  },
  {
    "Binder": "GHMSTSRGKCLMFKT (not fully specified (residue 10)) [p53H380GKC382me2 peptide]",
    "Result": "binds"
  },
  {
    "Binder": "STSRHKK(Me2)LMFKT (peptide, UniProt P04637 376-387, looked up) [p53K382me2 peptide (residues S376-T387 of p53)]",
    "Result": "binds"
  },
  {
    "Binder": "GHMSTSRHKCGMFKT (not fully specified (residue 10)) [p53KC382me2L383G peptide]",
    "Result": "binds"
  }
]

Value of measured binding result for the entry GHMSTSRHKCLMFKT (not fully specified (residue 10)) [p53KC382me2 peptide (recombinant, dimethyllysine analogue at 382)] : binds

Value of measured binding result for the entry GHMSTSRHGCLMFKT (not fully specified (residue 10)) [p53K381GKC382me2 peptide] : binds

Value of measured binding result for the entry GHMSTSGHKCLMFKT (not fully specified (residue 10)) [p53R379GKC382me2 peptide] : binds

Value of measured binding result for the entry GHMRAHSSHGCSKKGQST (not fully specified (residue 11)) [p53L369GKC370me2 peptide] : binds

Value of measured binding result for the entry GHMRAHSSGLCSKKGQST (not fully specified (residue 11)) [p53H368GKC370me2 peptide] : binds

Value of measured binding result for the entry GHMRAGSSHL[KCme2]SKKGQST [p53H365GKC370me2 peptide] : binds

Value of measured binding result for the entry GHMRAHSSHLCSKGGQST (not fully specified (residue 11)) [p53KC370me2K373G peptide] : binds

Value of measured binding result for the entry SSHLKSKKGQSTSRHKKLMFK (peptide, UniProt P04637 366-386, looked up, dimethyllysine at 370; dimethyllysine at 382) [p53K370me2K382me2 peptide (residues S366-K386)] : binds
